This collection of values is drawn from patent US10092000B2.

assay: Transient absorption spectroscopy (triplet state); format: physicochemical; settings: in H2O
Collected τ3/λmax(nm) in H2O values appear next to each entry.
Measurement kind: τ3/λmax(nm) in H2O

INSERT INTO results (compound, quantitative_readout) VALUES
  ('O=S(=O)([O-])CCCOc1ccc(C#Cc2ccc(C#Cc3ccc(OCCCS(=O)(=O)[O-])cc3)cc2)cc1.[Na+].[Na+] [EO-OPE-1 (C3, S)]', 543),
  ('C[N+](C)(C)CCOc1ccc(C#Cc2ccc(C#Cc3ccc(OCC[N+](C)(C)C)cc3)cc2)cc1.[I-].[I-] [EO-OPE-1 (C2, A)]', 541),
  ('C[N+](C)(C)CCCOc1ccc(C#Cc2ccc(C#Cc3ccc(OCCC[N+](C)(C)C)cc3)s2)cc1.[I-].[I-] [EO-OPE-1 (Th, C3, A)]', 510),
  ('C[N+](C)(C)CCCOc1ccc(C#Cc2ccc(C#Cc3ccc(OCCC[N+](C)(C)C)cc3)cc2)cc1.[I-].[I-] [EO-OPE-1 (C3, A)]', 545);

----------
test: Solubility in solvents; type: physicochemical; settings: DMF and DMSO
Measurement kind: solubility in DMF and DMSO

INSERT INTO results (compound, measurement_kind, result) VALUES
  ('C[N+](C)(C)CCOc1ccc(C#Cc2ccc(C#Cc3ccc(OCC[N+](C)(C)C)cc3)cc2)cc1.[I-].[I-] [EO-OPE-1 (C2, A)]', 'solubility in DMF and DMSO', 'quite soluble'),
  ('O=S(=O)([O-])CCCOc1ccc(C#Cc2ccc(C#Cc3ccc(OCCCS(=O)(=O)[O-])cc3)cc2)cc1.[Na+].[Na+] [EO-OPE-1 (C3, S)]', 'solubility in DMF and DMSO', 'quite soluble'),
  ('C[N+](C)(C)CCCOc1ccc(C#Cc2ccc(C#Cc3ccc(OCCC[N+](C)(C)C)cc3)cc2)cc1.[I-].[I-] [EO-OPE-1 (C3, A)]', 'solubility in DMF and DMSO', 'quite soluble'),
  ('C[N+](C)(C)CCCOc1ccc(C#Cc2ccc(C#Cc3ccc(OCCC[N+](C)(C)C)cc3)s2)cc1.[I-].[I-] [EO-OPE-1 (Th, C3, A)]', 'solubility in DMF and DMSO', 'quite soluble');

----------
assay: Transient absorption spectroscopy (triplet state); type: physicochemical; conditions: in H2O
Measurement kind: τ3/intensity in H2O

INSERT INTO measurements (cpd_smiles, measurement_kind, quantitative_readout) VALUES
  ('O=S(=O)([O-])CCCOc1ccc(C#Cc2ccc(C#Cc3ccc(OCCCS(=O)(=O)[O-])cc3)cc2)cc1.[Na+].[Na+]', 'τ3/intensity in H2O', 0.06),
  ('C[N+](C)(C)CCOc1ccc(C#Cc2ccc(C#Cc3ccc(OCC[N+](C)(C)C)cc3)cc2)cc1.[I-].[I-]', 'τ3/intensity in H2O', 0.065),
  ('C[N+](C)(C)CCCOc1ccc(C#Cc2ccc(C#Cc3ccc(OCCC[N+](C)(C)C)cc3)s2)cc1.[I-].[I-]', 'τ3/intensity in H2O', 0.15),
  ('C[N+](C)(C)CCCOc1ccc(C#Cc2ccc(C#Cc3ccc(OCCC[N+](C)(C)C)cc3)cc2)cc1.[I-].[I-]', 'τ3/intensity in H2O', 0.07);
